# Assayed System: recombinant human NK3 receptor (Homo sapiens, UniProt P29371)
# Construct: membranes
# Sequence (P29371 1-465): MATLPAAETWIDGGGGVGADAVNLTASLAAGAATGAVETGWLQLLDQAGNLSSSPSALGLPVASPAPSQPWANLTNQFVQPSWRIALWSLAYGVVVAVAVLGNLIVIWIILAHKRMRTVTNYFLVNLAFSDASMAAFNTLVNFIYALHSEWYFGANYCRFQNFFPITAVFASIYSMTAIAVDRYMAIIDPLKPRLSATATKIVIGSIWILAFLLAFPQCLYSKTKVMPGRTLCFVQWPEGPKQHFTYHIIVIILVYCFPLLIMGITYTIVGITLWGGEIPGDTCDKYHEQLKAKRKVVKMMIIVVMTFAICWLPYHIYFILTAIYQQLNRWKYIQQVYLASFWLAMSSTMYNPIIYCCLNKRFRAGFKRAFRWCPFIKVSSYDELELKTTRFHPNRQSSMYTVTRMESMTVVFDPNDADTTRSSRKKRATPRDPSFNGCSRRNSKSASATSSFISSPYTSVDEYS
# Assay Method Text: [3H]SR142801 competition binding assay
# Condition Parameters: membranes from HEK293 cells transiently expressing recombinant human NK3 receptor; [3H]SR142801 radioligand; read-out: Data Ki (hNK-3 receptor affinity)
Hi there, I'd appreciate the recorded Ki for every entry that follows.
Express your answer in nM, writing the number without its unit.

Requested read-out: Ki. Entry: N#Cc1ccccc1N1CCN(C(=O)[C@@H]2C[C@H](n3nnc(-c4ccc(F)cc4F)n3)CN2Cc2cccc(Cl)c2)CC1 [Example 6]
295

# lookup: Ki of N#Cc1ccccc1N1CCN(C(=O)[C@@H]2C[C@H](n3nnc(-c4ccc(F)cc4F)n3)CN2Cc2ccc(F)cc2)CC1 [Example 4]
965

Recorded Ki of N#Cc1ccccc1N1CCN(C(=O)[C@@H]2C[C@H](n3nnc(-c4ccc(F)cc4F)n3)CN2CC2CCCCC2)CC1 [Example 8] , please.
696

Which Ki value is on record for N#Cc1ccccc1N1CCN(C(=O)[C@@H]2C[C@H](n3nnc(-c4ccc(F)cc4F)n3)CN2Cc2ccccc2Cl)CC1 [Example 5] ?
280

Item under review: N#Cc1ccccc1N1CCN(C(=O)[C@@H]2C[C@H](n3nnc(-c4ccc(F)cc4F)n3)CN2Cc2ccc(F)c(F)c2)CC1 [Example 9] . Reported Ki?
387

Recorded Ki of N#Cc1ccccc1N1CCN(C(=O)[C@@H]2C[C@H](n3nnc(-c4ccc(F)cc4F)n3)CN2Cc2cccc(F)c2)CC1 [Example 3] , please.
320

# Ki lookup, item N#Cc1ccccc1N1CCN(C(=O)[C@@H]2C[C@H](n3nnc(-c4ccc(F)cc4F)n3)CN2Cc2ccccc2F)CC1 [Example 2]
23

// returns reported Ki for input N#Cc1ccccc1N1CCN(C(=O)[C@@H]2C[C@H](n3nnc(-c4ccc(F)cc4F)n3)CN2Cc2ccc(Cl)cc2)CC1 [Example 7]
208

Item N#Cc1ccccc1N1CCN(C(=O)[C@@H]2C[C@H](n3nnc(-c4ccc(F)cc4F)n3)CN2Cc2ccccc2)CC1 [Example 1] has what recorded Ki?
84
